biological target: Alpha-glucosidase (Saccharomyces cerevisiae S288c, UniProt P53341+P38158+P07265); assay: Inhibition of yeast alpha-glucosidase assessed as release of p-nitrophenol using PNPG as substrate preincubated for 10 mins followed by substrate addition and measured after 35 mins by microplate photometer analysis; assay type: protein assay
measurement-name: IC50 (µM)

>  <given-smiles>
COc1c(O)cc2oc3cc(O)c(C/C=C(\C)CO)c(O)c3c(=O)c2c1C/C=C(/C)CC=C(C)C

>  <units-of-measure>
µM

>  <IC50>
28

$$$$
>  <given-smiles>
C=C(C)/C=C/c1cc(O)c(O)c2oc3c(C/C=C(/C)CC=C(C)C)c(OC)cc(O)c3c(=O)c12

>  <units-of-measure>
µM

>  <IC50>
7.8

$$$$

a. C=C(C)/C=C/c1c(O)cc(O)c2c(=O)c3c(C/C=C(/C)CC=C(C)C)c(OC)c(O)cc3oc12
b. COc1c(O)cc2oc3cc(O)c(C/C=C(\C)COC(C)=O)c(O)c3c(=O)c2c1C/C=C(/C)CC=C(C)C
When their IC50 values are compared, which is larger, a or b ? Answer with the label corresponding to your selection.
b

Reference source: ChEMBL document CHEMBL5244222
